The measured values listed here are drawn from ChEMBL document CHEMBL1150891.

Target chain: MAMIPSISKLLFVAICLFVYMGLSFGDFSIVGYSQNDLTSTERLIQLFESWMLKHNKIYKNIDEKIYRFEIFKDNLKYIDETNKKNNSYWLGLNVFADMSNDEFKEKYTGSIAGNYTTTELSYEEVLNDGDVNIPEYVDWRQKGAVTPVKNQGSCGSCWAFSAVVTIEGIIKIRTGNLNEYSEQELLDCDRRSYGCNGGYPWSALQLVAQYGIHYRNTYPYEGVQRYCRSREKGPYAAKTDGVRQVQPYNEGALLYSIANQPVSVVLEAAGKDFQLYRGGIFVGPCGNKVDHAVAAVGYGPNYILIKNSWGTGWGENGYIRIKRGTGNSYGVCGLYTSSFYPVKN
PARAMETER: pIC50
// returns pIC50 (minus log10 of molar concentration), number only

Reported pIC50, molecule O=C([O-])C[n+]1cccc(C(=O)O)c1 : ____
3.35
